target: T1, Abeta42 beta amyloid peptide (UniProt P05067 672-713); test: competition ELISA, purified antibody against biotinylated 6E10 on coated beta amyloid; normalised to the row 'Mouse' (chimeric mouse 6E10); <1 improved
T1 construct: domain: Abeta42 beta amyloid peptide; also called Aβ42; Aβ
T1 sequence (P05067 672-713 limits assumed): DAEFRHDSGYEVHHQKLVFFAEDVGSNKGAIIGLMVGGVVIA
quantity: Fold Difference (IC50 normalised to the reference) (fold)
State just the number; it will be interpreted in fold.

Solved entries (count: 3):
Composite human antibody variant VH4/VK1 (antibody, human IgG1, V domains shown, Human IgG1/kappa (pANT15/pANT13), NS0 cells; also called VH4/YK1) VH: QVQLVQSGAEVKKPGASVKVSCTASGFNIKDTYIHWVRQARGQRLEWIGRFDPVNVNTRYDSRFRGRVTITSDASTNTAYMELSSLRSEDTAVYYCSRSYYNGRRRFTYWGQGTLVTVSS VL: DIVMTQSPDSLTVSLGERATINCKASQSLLSSGNQKNYLTWYQQKPGQPPKLLIYWASIRESGVPDRFTGSGSGTFFTLTISSLQAEDVAVYYCQNDYNYPFTFGQGTKLEIK :: 1.14
MDT-2007 (composite human antibody sequence variant VH4/VK2) (antibody, human IgG1, V domains shown, Human IgG1/kappa (pANT15/pANT13), NS0 cells) VH: QVQLVQSGAEVKKPGASVKVSCTASGFNIKDTYIHWVRQARGQRLEWIGRFDPVNVNTRYDSRFRGRVTITSDASTNTAYMELSSLRSEDTAVYYCSRSYYNGRRRFTYWGQGTLVTVSS VL: DIVMTQSPSSLTASVGDRVTITCKASQSLLSSGNQKNYLTWYQQKPGQPPKLLIYWASIRESGVPDRFTGSGSGTFFTLTISSLQAEDVAVYYCQNDYNYPFTFGQGTKLEIK :: 0.57
Composite human antibody variant VH5/VK2 (antibody, human IgG1, V domains shown, Human IgG1/kappa (pANT15/pANT13), NS0 cells) VH: QVQLVQSGAEVKKPGASVKVSCTASGFNIKDTYIHWVRQARGQRLEWIGRFDPVNVNTRYDSRFRGRVTITSDASTSTAYMELSSLRSEDTAVYYCSRSYYNGRRRFTYWGQGTLVTVSS VL: DIVMTQSPSSLTASVGDRVTITCKASQSLLSSGNQKNYLTWYQQKPGQPPKLLIYWASIRESGVPDRFTGSGSGTFFTLTISSLQAEDVAVYYCQNDYNYPFTFGQGTKLEIK :: 0.72

In the following, a different binder is considered.
The binder listed as Composite human antibody variant VH5/VK1 (antibody, human IgG1, V domains shown, Human IgG1/kappa (pANT15/pANT13), NS0 cells; also called VH5/YK1) VH: QVQLVQSGAEVKKPGASVKVSCTASGFNIKDTYIHWVRQARGQRLEWIGRFDPVNVNTRYDSRFRGRVTITSDASTSTAYMELSSLRSEDTAVYYCSRSYYNGRRRFTYWGQGTLVTVSS VL: DIVMTQSPDSLTVSLGERATINCKASQSLLSSGNQKNYLTWYQQKPGQPPKLLIYWASIRESGVPDRFTGSGSGTFFTLTISSLQAEDVAVYYCQNDYNYPFTFGQGTKLEIK shows Fold Difference (IC50 normalised to the reference) equal to 0.91
